Could you please report measured ELISA mIL-12RB2/control for the items listed next?
# Assay Target: T1, biotinylated recombinant mouse IL-12Rβ2 (mouse, UniProt P97378 24-637, random biotinylated)
# T1 construct: Recombinant protein produced in-house; also called mIL-12RB2; mouse IL-12RB2
# T1 sequence: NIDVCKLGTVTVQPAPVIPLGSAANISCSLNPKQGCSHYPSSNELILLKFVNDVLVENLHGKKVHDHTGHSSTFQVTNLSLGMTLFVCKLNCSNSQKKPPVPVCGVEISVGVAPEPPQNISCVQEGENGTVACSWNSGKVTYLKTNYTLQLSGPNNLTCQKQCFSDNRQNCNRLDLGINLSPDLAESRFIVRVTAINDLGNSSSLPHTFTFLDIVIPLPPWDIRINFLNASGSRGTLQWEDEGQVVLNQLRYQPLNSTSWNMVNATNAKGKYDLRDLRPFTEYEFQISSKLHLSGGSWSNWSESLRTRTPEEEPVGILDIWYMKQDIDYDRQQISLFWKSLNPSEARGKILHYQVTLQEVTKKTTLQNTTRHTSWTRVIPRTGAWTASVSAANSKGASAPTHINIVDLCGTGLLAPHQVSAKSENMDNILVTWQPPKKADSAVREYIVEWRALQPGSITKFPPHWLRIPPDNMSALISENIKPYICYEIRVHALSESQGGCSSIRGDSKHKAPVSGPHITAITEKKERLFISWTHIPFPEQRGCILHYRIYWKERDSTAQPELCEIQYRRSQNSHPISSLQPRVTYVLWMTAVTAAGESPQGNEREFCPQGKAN
# Test Details: ELISA, P.E., biotinylated antigen
Would you mind answering with just the numeric figure?

Entry anti-IL-12Rβ2 VHH clone 3CAHS53 (clone ID 20397) (VHH, not shown: small tags and cut ends, periplasmic extract) VHH: QVQLQESGGGLVEPGGSLRLSCAASGRTINAYIMGWFRQAPGKEREFVAAVSGSGGSTYYADSVKGRFTISRDSAKNTVNLQMDNLRSEDTDVYYCAATYESVYLQNPGQYDYWGQGTQVTVSS — recorded ELISA mIL-12RB2/control = 1.1

Record anti-IL-12Rβ2 VHH clone 3CRH83 (clone ID 20390) (VHH, not shown: small tags and cut ends, periplasmic extract) VHH: QVQLQESGGGLVQAGGSLKLSCAASGNTFSINAMAWYRQAPGQELELVAAISDVGNTIYADSMKGRFTISRGNADNTVYLQMNSLKPEDTATYYCNAGTFYTSPGDSYYRGYDFWGQGTQVTVSS . Reported ELISA mIL-12RB2/control: 14

// sample anti-IL-12Rβ2 VHH clone 3CRHS163 (clone ID 20438) (VHH, not shown: small tags and cut ends, periplasmic extract) VHH: QVQLQESGGGLVQPGGSLRLSCTASGFAFSTYWMYWIRQSPEKGFEWVSVVNTGGDITYYADSVKGRFTISRDNAKNTLYLQMNSLKPEDTALYYCARDRTTMSYTRTYYRGGQGTQVTVSS , its ELISA mIL-12RB2/control was 0.927

Kindly note the recorded ELISA mIL-12RB2/control for anti-IL-12Rβ2 VHH clone 3CRH25 (clone ID 20378) (VHH, not shown: small tags and cut ends, periplasmic extract) VHH: QVQLQESGGGLVQAGDSLRLSCTASGHTFSRYTTIGWFRQAPGKDREFVAAIRWSGDITDYADAVKGRFTISRDNVKNTVYLQMNSLNPEDTAVYYCARGYSEYGVLSRNRGLYAYWGQGTQVTVSS , which is 1.04

// field: ELISA mIL-12RB2/control; key: anti-IL-12Rβ2 VHH clone 3CRH18 (clone ID 20377) (VHH, not shown: small tags and cut ends, periplasmic extract) VHH: QVQLQESGGGLVQPGGSLRLSCTASGNIVSIYNMDWYRQAPGNQREWVASITSSGDPYYDGSAKGRFTISRDNAKMTVYLQMNSLRPEDTAVYYCKVPTEKGNYWGQGTQVTVSS ; value = 1.8

The reported ELISA mIL-12RB2/control of the binder anti-IL-12Rβ2 VHH clone 3CAHM11 (clone ID 21050) (VHH, not shown: small tags and cut ends, periplasmic extract) VHH: QVQLQESGGGLVQAGGSLRLSCAASGRTFNNYAMAWFRQAPGKEREFIAAITRSDTTLYIDSVKGRFTISRDNAKNTVALQMNSLKPEDTAVYYCAAGMPYSYSDYPRDSKYDYWGRGTQVTVSS was 38.8

Summary for this binder, anti-IL-12Rβ2 VHH clone 2CRH41 (clone ID 20365) (VHH, not shown: small tags and cut ends, periplasmic extract) VHH: QVQLQESGGGLVQPGGSLRLSCTASGFAFSSYWMYWVRQSPEKGFEWVSVVDTDGGITYYADSVKGRFTISRDNAKNTLYLQMNSLKPQDTALYYCARDRTTLEYTRTYYRTGQGTQVTVSS : ELISA mIL-12RB2/control is 1.64

# ELISA mIL-12RB2/control of anti-IL-12Rβ2 VHH clone 3CAH60 (clone ID 20361) (VHH, not shown: small tags and cut ends, periplasmic extract) VHH: QVQLQESGGGLVQPGGSLILSCVASGFAMDYLTMGWSREAPRNEREDISCIDTSGRSTDYLDSVKGRFTISRDNAKNTLYLHMNDLKPEDTAEYYCLASTSYCGAGYEYRGQGTQVTVSS = 1.9

anti-IL-12Rβ2 VHH clone 3CAHS150 (clone ID 20403) (VHH, not shown: small tags and cut ends, periplasmic extract) VHH: QVQLQESGGGSVQAGGSLRLSCAASGRTINAYVMGWFRQAPGKEREFVAAISGSGGSTYYADSVKGRFTISRDNAKNTVNLQMDNLRSEDTDVYYCAATYESVYLQNPGQYDYWGQGTQVTVSS has a reported ELISA mIL-12RB2/control of 0.988

The recorded ELISA mIL-12RB2/control for anti-IL-12Rβ2 VHH clone 3CAHS79 (clone ID 20398) (VHH, not shown: small tags and cut ends, periplasmic extract) VHH: QVQLQESGGGLVQPGGSLRLTCVASGFPFSTHAMSWVRQPPGKGREWISAINSGGDSTDYADSVMGRFTISRDNAKNTVYLQMNSLKSEDTAVYYCAKYEDCSDYDCSSRASWGQGTQVTVSS is 1.04

The binder listed as anti-IL-12Rβ2 VHH clone 3CRH68 (clone ID 20388) (VHH, not shown: small tags and cut ends, periplasmic extract) VHH: QVQLQESGGGLVQPGGSLRLSCTASGSILSIYNMDWYRQVPGNQREWVASITPSGDPYYDGSVKGRFTISRDNAKMMVYLQMNSLKPEDTAVYYCKVPTEKGNYWGQGTQVTVSS shows ELISA mIL-12RB2/control equal to 1.03

Form field ELISA mIL-12RB2/control, entry anti-IL-12Rβ2 VHH clone 2CRHS4 (clone ID 20411) (VHH, not shown: small tags and cut ends, periplasmic extract) VHH: QVQLQESGGGLVQPGGSLRLSCVSSQTLVGIEAMGWYRQAPGKQRELVALITLNGGTFYADSVKGRFTISRDVAGHMLYLEMNSLNPEDTAVYFCVAGVESDNEEPTYWGQGTQVTVSS : 1.07

// field: ELISA mIL-12RB2/control; key: anti-IL-12Rβ2 VHH clone 2CRH33 (clone ID 20363) (VHH, not shown: small tags and cut ends, periplasmic extract) VHH: QVQLQESGGGSVQPGWSLRLTCAASGFTFSTSGMHWFRQAPGKGLEWVSSISSGGGDTYYTDSVKGRITISRDNAKNTLYLQLNDLKSEDTAVYYCSKDPSGATRGQGTQVTVSS ; value = 0.971

Lookup result for anti-IL-12Rβ2 VHH clone 3CRH43 (clone ID 20382) (VHH, not shown: small tags and cut ends, periplasmic extract) VHH: QVQLQESGGGSVQPGGSLRLSCAASGFTFSTSGMHWFRQAPGKGLEWVSSIGIIVDSSYYASSVKGRFTISRDNAKNIVYLQMNSLKSEDTAVYYCSKDPTGSSRGQGTQVTVSS ; measured ELISA mIL-12RB2/control: 0.828

Form field ELISA mIL-12RB2/control, entry anti-IL-12Rβ2 VHH clone 3CRHS156 (clone ID 20437) (VHH, not shown: small tags and cut ends, periplasmic extract) VHH: QVQLQESGGGLVQSGGSLRLSCVSSQTLVGIEAMGWYRQAPGKQRELVALITLNGGTFYADSVKGRFAISRDVAEHMLYLEMNSLNPEDTAVYFCVAGVESDNEEPTYWGQGTQVTVSS : 1.03
